Readings of TGI for the listed compounds
system: SF-295 CNS; assay: NCI tumour cell line growth inhibition, 48 h
Use µM as the unit, but write only the number.

CC(/C=C/C=C/C=C/C=C/C=C/C(O)=C1/C(=O)C(CCC(=O)O)N(C)C1=O)=C\C(C)C(OC1CC(O)C(O)C(C)O1)C(C)C (stereo not given) = 14.8

Ask | Which TGI value belongs to COC1OC(COCc2ccc(Cl)cc2)C(OCc2ccc(Cl)cc2)C1O (stereo not given) ?
Reply | 32.3

Ask | Next: O=C(COC(c1ccc(F)cc1)c1ccc(F)cc1)N1CCN(CCCc2ccccc2)CC1
Reply | 13

Ask | Next: CC(C)Cc1ccc(C(C)/C=C2\CCC(CN3CCOCC3)C2=O)cc1 (stereo not given)
Reply | 29.3

Ask | Next: COc1cc(/C=C2/C[C@H]3[C@@H]4CCC5=CC(=O)CC[C@]5(C)[C@H]4CC[C@]3(C)NC2=O)cc(OC)c1OC
Reply | 77.7

Ask | Next: C[C@H]1O[C@@H](O[C@H]2[C@@H](O)C[C@H](O[C@H]3[C@@H](O)C[C@H](O[C@H]4CC[C@]5(C)C6C[C@@H](O)[C@]7(C)[C@@H](C8=CC(=O)OC8)CC[C@]7(O)C6CC[C@@H]5C4)O[C@@H]3C)O[C@@H]2C)C[C@H](O)[C@@H]1O (stereo not given in full)
Reply | 0.233

Ask | Next: Oc1c(Cl)ccc2cccnc12
Reply | 68.4

Ask | Next: COc1ccc(S(=O)(=O)Nc2cc(/C=C\c3cc(OC)c(OC)c(OC)c3)cc(OC)c2OC)cc1OC
Reply | 55.6

Ask | Next: C[C@]1(O)CC(=O)c2c(c(-c3ccc4cc5c(c(O)c4c3O)C(=O)C[C@@](C)(O)C5)c3cccc(O)c3c2O)C1
Reply | 18.6

Ask | Next: CN(C)C/C=C(/c1ccc(Br)cc1)c1cccnc1
Reply | 63.5

---

tested on: T-47D breast; experiment: NCI tumour cell line growth inhibition, 48 h
Property: TGI

Ask | Which TGI value belongs to Clc1ccc(-c2nc(-c3c[nH]c4ncccc34)cs2)cc1 ?
Reply | > 100 µM

Ask | Next: O=[N+]([O-])c1ccccc1S(=O)(=O)c1ccccc1[N+](=O)[O-]
Reply | > 100 µM

Ask | Next: O=P(O)(O)OP(=O)(O)O
Reply | > 100 µM

Ask | Next: CC1=NN(c2cccc(Cl)c2)C(=N/c2nc3ccccc3s2)/C1=C\C=C\c1ccccc1
Reply | > 100 µM

Ask | Next: CCOC(=O)CC(=O)N(c1ccc(OC)cc1)C(C(=O)OC)c1ccccc1 (stereo unspecified)
Reply | > 100 µM

Ask | Next: C/C(Sc1ccccc1)=C1/CCCN(Cc2ccccc2)C1
Reply | 33.5 µM

---

Readings of TGI for the listed compounds
test system: COLO 205 colon; assay: NCI tumour cell line growth inhibition, 48 h

Cc1cc(=O)cc2sc3cc(Cl)ccc3nc1-2 = 53.7 µM
Nc1ccccc1C#Cc1ccccc1C#Cc1ccccc1N = 43.9 µM
O=CC(O)C(O)C(O)COc1cc(CO)cc2c1C(=O)c1ccccc1C2=O (configuration not stated) = > 100 µM
CCC(C)[C@H]1C(=O)N=C(N)N1C(=O)OCc1ccccc1 (some centres not stated) = > 100 µM
CCC(C#N)N(Cc1ccc(CN(C(=O)c2ccccc2)C(C#N)CC)cc1)C(=O)c1ccccc1 (configuration not stated) = 31.3 µM
O=[N+]([O-])c1ccccc1S(=O)(=O)c1ccccc1[N+](=O)[O-] = > 100 µM

Ask | Which TGI value belongs to COc1cccc(C2=NN(C(C)=O)C(c3cc(OC)c(OC)c(OC)c3)C2)c1 (configuration not stated) ?
Reply | 12.3 µM
